test system: small cell lung cancer cell line H69; assay: MTT proliferation, small cell lung cancer cell line H69; format: cell-based; details: MTT, 72 hours, H69; read-out: IC50 (μM) of compounds in small cell lung cancer cells, H69
# IC50 listing for each entry below

compound	IC50 (µM)
CC(C)C(=O)OCOP(=O)(COC[C@@H]1CC(O)[C@H](n2cnc3c(N)ncnc32)O1)OCOC(=O)C(C)C (stereo partly shown)	53.4
CC(C)COP(=O)(OCC(C)C)OC[C@@H]1CC(O)[C@H](n2cnc3c(N)ncnc32)O1 (stereo partly shown)	43.2
CC(C)OC(=O)[C@H](C)NP(=O)(COCC1CC(C#N)C(n2cnc3c(N)ncnc32)O1)Oc1ccccc1 (stereo partly shown)	23.3
CC(C)(C)C(=O)OCOP(=O)(COC[C@@H]1CC(O)[C@H](n2cnc3c(NC(=O)c4ccncc4)ncnc32)O1)OCOC(=O)C(C)(C)C (stereo partly shown)	20.2
O=C(Nc1ncnc2c1ncn2[C@@H]1O[C@H](CO)CC1O)c1ccncc1 (stereo partly shown)	19.5
CC(C)[C@H](N)C(=O)OCC(CO)OCC1CC(O)C(n2cnc3c(N)ncnc32)O1 (stereo partly shown)	14.8
Nc1ncnc2c1ncn2[C@@H]1O[C@H](COCCO)CC1O (stereo partly shown)	20.6

====

test system: wild-type AB-line zebrafish; conditions: 3 dpf to 5 dpf, 35° C.; survival rate>90% and teratogenicity<20%
property.name: Maximum tolerance dose (MTD) in zebrafish model (µM)

compound	experimental.system	experimental.value
Nc1ncnc2c1ncn2[C@@H]1O[C@H](CO)C[C@H]1O [Cordycepin, 3′-deoxyadenosine]	wild-type AB-line zebrafish	995
CC(C)Nc1nc2c(N)ncnc2n1[C@@H]1O[C@H](COP(=O)(O)O)CC1O (stereo partly shown)	wild-type AB-line zebrafish	28
Nc1nc(F)nc2c1ncn2[C@@H]1O[C@H](COP(=O)(O)O)CC1O (stereo partly shown)	wild-type AB-line zebrafish	0.05
Nc1ncnc2c1ncn2[C@@H]1O[C@H](COP(=O)(O)O)CC1O (stereo partly shown)	wild-type AB-line zebrafish	845
CC(C)OC(=O)C(C)NP(=O)(COC[C@@H]1CC(O)[C@H](n2cnc3c(N)nc(F)nc32)O1)Oc1ccccc1 (stereo partly shown)	wild-type AB-line zebrafish	0.12
CC(C)(C)C(=O)OCOP(=O)(COC[C@]1(N=[N+]=[N-])CC(O)[C@H](n2cnc3c(N)ncnc32)O1)OCOC(=O)C(C)(C)C (stereo partly shown)	wild-type AB-line zebrafish	0.17
[N-]=[N+]=N[C@@H]1C(O)[C@H](n2cnc3c(N)ncnc32)O[C@@H]1COP(=O)(O)O (stereo partly shown)	wild-type AB-line zebrafish	12
NC1=CS(=O)(=O)OC12C[C@@H](COP(=O)(O)O)O[C@H]2n1cnc2c(N)ncnc21 (stereo partly shown)	wild-type AB-line zebrafish	14
CC(C)OC(=O)C(C)NP(=O)(COC[C@@H]1CC(O)[C@H](n2cnc3c(NC(=O)c4ccncc4)ncnc32)O1)Oc1ccccc1 (stereo partly shown)	wild-type AB-line zebrafish	5
O=C(Nc1ncnc2c1ncn2[C@@H]1O[C@H](CO)CC1O)C1CCCC1 (stereo partly shown)	wild-type AB-line zebrafish	75

====

In this section, each of the molecules is paired with its reported IC50.
tested on: small cell lung cancer cell line H446; assay: MTT proliferation, small cell lung cancer cell line H446; format: cell-based; details: Homo sapiens, NCI-H446, 72 h, MTT, 72 hours, H446; read-out: IC50 (μM) of compounds in small cell lung cancer cells, H446
property.name: IC50 (µM)

molecule	unit.name	value.qualifier	experimental.value
Nc1nc(/C=C/Br)nc2c1ncn2[C@@H]1O[C@H](COP(=O)(O)O)CC1O (stereo partly shown)	µM	=	0.97
CC(C)C(=O)OCOP(=O)(COC[C@@H]1CC(O)[C@H](n2cnc3c(N)ncnc32)O1)OCOC(=O)C(C)C (stereo partly shown)	µM	=	43.3
CC(C)COP(=O)(OCC(C)C)OC[C@@H]1CC(O)[C@H](n2cnc3c(N)ncnc32)O1 (stereo partly shown)	µM	=	54.3
O=C(Nc1ncnc2c1ncn2[C@@H]1O[C@H](CO)CC1O)c1ccncc1 (stereo partly shown)	µM	=	18.1
Nc1ncnc2c1ncn2[C@@H]1O[C@H](COP(=O)(O)O)CC1O (stereo partly shown)	µM	=	76.8
CC(C)(C)C(=O)OCOP(=O)(COC[C@@H]1CC(O)[C@H](n2cnc3c(NC(=O)c4ccncc4)ncnc32)O1)OCOC(=O)C(C)(C)C (stereo partly shown)	µM	=	16.4
Nc1ncnc2c1ncn2[C@@H]1O[C@H](CO)C[C@H]1O [Cordycepin, 3′-deoxyadenosine]	µM	>	100

====

tested on: small cell lung cancer cell line H69; assay: MTT proliferation, small cell lung cancer cell line H69; type: cell-based; conditions: MTT, 72 hours, H69; read-out: IC50 (μM) of compounds in small cell lung cancer cells, H69
property.name: IC50 (µM)

compound	unit.name	experimental.value
Nc1ncnc2c1ncn2[C@@H]1O[C@H](COP(=O)(O)O)CC1O (stereo partly drawn) [Compound 2]	µM	50.2
Nc1ncnc2c1ncn2[C@@H]1O[C@H](CO)C[C@H]1O [Cordycepin, 3′-deoxyadenosine]	µM	63.1
Nc1nc(/C=C/Br)nc2c1ncn2[C@@H]1O[C@H](COP(=O)(O)O)CC1O (stereo partly drawn) [Compound 38]	µM	1.25

====

tested on: small cell lung cancer cell line H1048; assay: MTT proliferation, small cell lung cancer cell line H1048; type: cell-based; details: Homo sapiens, NCI-H1048, 72 h, MTT, 72 hours, H1048; read-out: IC50 (μM) of compounds in small cell lung cancer cells, H1048

compound	experimental.system	value.qualifier	IC50 (µM)
O=C(Nc1ncnc2c1ncn2[C@@H]1O[C@H](CO)CC1O)c1ccncc1 (stereo partly shown)	small cell lung cancer cell line H1048	=	22.2
CC(C)COP(=O)(OCC(C)C)OC[C@@H]1CC(O)[C@H](n2cnc3c(N)ncnc32)O1 (stereo partly shown)	small cell lung cancer cell line H1048	=	42.1
Nc1ncnc2c1ncn2[C@@H]1O[C@H](COP(=O)(O)O)CC1O (stereo partly shown)	small cell lung cancer cell line H1048	=	55.3
Nc1ncnc2c1ncn2[C@@H]1O[C@H](CO)C[C@H]1O [Cordycepin, 3′-deoxyadenosine]	small cell lung cancer cell line H1048	>	100
